The reported numbers originate from ChEMBL document CHEMBL3864193.

- method: Cytotoxicity against human A549 cells after 72 hrs by MTT assay
- Assay type: functional, cell-based
- applied_conditions: A549, 72 h
observation_type: IC50 (µM)
Give your result in µM as a bare value.

So for CCc1ccc(-c2cc(C(=O)Nc3ccc(Oc4ccnc(C(=O)NC)c4)c(F)c3)ncn2)cc1 , the logged IC50 turned out to be 3.39

So for CNC(=O)c1cc(Oc2ccc(NC(=O)c3nccc(-c4ccccc4)n3)cc2)ccn1 , the logged IC50 turned out to be 26.2

So for CNC(=O)c1cc(Oc2ccc(NC(=O)c3cc(-c4ccc(OC)cc4)ncn3)cc2)ccn1 , the logged IC50 turned out to be 13.5

So for CNC(=O)c1cc(Oc2ccc(NC(=O)c3nccc(-c4ccc(OC)cc4)n3)cc2F)ccn1 , the logged IC50 turned out to be 16.6

So for CCc1ccc(-c2cc(C(=O)Nc3ccc(Oc4ccnc(C(=O)NC)c4)cc3)ncn2)cc1 , the logged IC50 turned out to be 13.3

So for CNC(=O)c1cc(Oc2ccc(NC(=O)c3nccc(-c4ccc(C)cc4)n3)cc2)ccn1 , the logged IC50 turned out to be 28.4

So for CNC(=O)c1cc(Oc2ccc(NC(=O)c3cc(-c4ccccc4)ncn3)cc2F)ccn1 , the logged IC50 turned out to be 23.2

----------
Recorded IC50, one value per entry.
- method: Cytotoxicity against human A549 cells after 72 hrs by MTT assay
- Type: functional, cell-based
- applied_conditions: A549, 72 h
Give your result in µM as a bare value.

{"chemical_structure": "CNC(=O)c1cc(Oc2ccc(NC(=O)c3cc(-c4ccc(C)cc4)ncn3)cc2F)ccn1", "IC50 (µM)": 13.2}

Note: attention shifts to another entry.
So for CNC(=O)c1cc(Oc2ccc(NC(=O)c3nccc(-c4ccc(OC)cc4)n3)cc2)ccn1 , the logged IC50 turned out to be 11.1

----------
Recorded IC50, one value per entry.
- method: cells
- applied_conditions: Homo sapiens, MCF7, 72 h
- Description: Cytotoxicity against human MCF7 cells after 72 hrs by MTT assay
Give your result in µM as a bare value.

Examples from the recorded data:
{"chemical_structure": "CNC(=O)c1cc(Oc2ccc(NC(=O)c3cc(-c4ccccc4)ncn3)cc2F)ccn1", "IC50 (µM)": 32.4}
{"chemical_structure": "CNC(=O)c1cc(Oc2ccc(NC(=O)c3cc(-c4ccc(OC)cc4)ncn3)cc2F)ccn1", "IC50 (µM)": 46.2}
{"chemical_structure": "CNC(=O)c1cc(Oc2ccc(NC(=O)c3nccc(-c4ccc(OC)cc4)n3)cc2)ccn1", "IC50 (µM)": 35.2}
{"chemical_structure": "CNC(=O)c1cc(Oc2ccc(NC(=O)c3cc(-c4ccc(C)cc4)ncn3)cc2)ccn1", "IC50 (µM)": 34.6}
{"chemical_structure": "CCc1ccc(-c2cc(C(=O)Nc3ccc(Oc4ccnc(C(=O)NC)c4)c(F)c3)ncn2)cc1", "IC50 (µM)": 7.63}

So for CNC(=O)c1cc(Oc2ccc(NC(=O)c3nccc(-c4ccc(C)cc4)n3)cc2F)ccn1 , the logged IC50 turned out to be 69.2

So for CNC(=O)c1cc(Oc2ccc(NC(=O)c3cc(-c4ccccc4)ncn3)cc2)ccn1 , the logged IC50 turned out to be 18.2

----------
Recorded IC50, one value per entry.
- method: Cytotoxicity against human A549 cells after 72 hrs by MTT assay
- Type: functional, cell-based
- applied_conditions: A549, 72 h

{"chemical_structure": "CNC(=O)c1cc(Oc2ccc(NC(=O)c3nccc(-c4ccc([N+](=O)[O-])cc4)n3)cc2)ccn1", "IC50": "> 100 µM"}
{"chemical_structure": "CNC(=O)c1cc(Oc2ccc(NC(=O)c3cc(-c4ccc(C)cc4)ncn3)cc2)ccn1", "IC50": "> 100 µM"}
{"chemical_structure": "CNC(=O)c1cc(Oc2ccc(NC(=O)c3cc(-c4ccc(C(F)(F)F)cc4)ncn3)cc2F)ccn1", "IC50": "> 100 µM"}
{"chemical_structure": "CNC(=O)c1cc(Oc2ccc(NC(=O)c3cc(-c4ccccc4)ncn3)cc2)ccn1", "IC50": "27.1 µM"}
{"chemical_structure": "CNC(=O)c1cc(Oc2ccc(NC(=O)c3cc(-c4ccc(OC)cc4)ncn3)cc2F)ccn1", "IC50": "34.5 µM"}
{"chemical_structure": "CNC(=O)c1cc(Oc2ccc(NC(=O)c3cc(-c4ccc(C(F)(F)F)cc4)ncn3)cc2)ccn1", "IC50": "> 100 µM"}

So for CNC(=O)c1cc(Oc2ccc(NC(=O)c3cc(-c4ccc(F)cc4)ncn3)cc2F)ccn1 , the logged IC50 turned out to be > 100 µM

So for CNC(=O)c1cc(Oc2ccc(NC(=O)c3nccc(-c4ccc(C)cc4)n3)cc2F)ccn1 , the logged IC50 turned out to be 33.2 µM

So for CNC(=O)c1cc(Oc2ccc(NC(=O)c3cc(-c4ccc(Br)cc4)ncn3)cc2)ccn1 , the logged IC50 turned out to be > 100 µM
